System: M21
experiment_notes: Antiproliferative activity against human M21 cells assessed as cell growth inhibition incubated for 48 hrs by sulforhodamine B assay
Assay type: functional, cell-based
condition_info: M21, 48 h
Reported values of IC50 for individual entries

CCCCCCCCN1CCN(c2ccc(S(=O)(=O)Oc3cccc(OC)c3)cc2)C1=O = > 2500 nM
CCCCCCCCN1CCN(c2ccc(S(=O)(=O)Oc3cc(F)cc(F)c3)cc2)C1=O = > 1250 nM

Turning now to a further compound:
Q) Which measured IC50 value corresponds to `CCCCCCCCN1CCN(c2ccc(S(=O)(=O)Oc3cccc(I)c3)cc2)C1=O` ?
A) > 1250 nM
